Source: ChEMBL document CHEMBL3046747

Target: Ecdysone receptor (Bombyx mori)
Assay: Agonist activity at ecdysone receptor in Bombyx mori Bm5 cells after 24 hr by luciferase reporter gene assay relative to tebufenozide
Type: cell-based
Assign class by Efficacy: not lower than 90% means T; lower than 90% means F.

Look over these answered cases.
[[record]]
compound = "Cc1cc(C)cc(C(=O)N(NC(=O)c2ccccc2)C(C)(C)C)c1"
class_assignment = "T"

[[record]]
compound = "CCc1ccc(C(=O)NN(C(=O)c2cc(C)cc(C)c2)C(C)(C)C)cc1 [TEBUFENOZIDE]"
class_assignment = "T"

[[record]]
compound = "CCCCCc1ccc(C(=O)NN(C(=O)c2ccccc2Cl)C(C)(C)C)cc1"
class_assignment = "T"

[[record]]
compound = "CCCCc1ccc(C(=O)NN(C(=O)c2cc(C)cc(C)c2Cl)C(C)(C)C)cc1"
class_assignment = "F"

[[record]]
compound = "Cc1cc(C)cc(C(=O)N(NC(=O)c2ccc3c(c2C)CCCO3)C(C)(C)C)c1 [CHROMAFENOZIDE]"
class_assignment = "T"


[Q] Test whether the compound Cc1ccccc1C(=O)NN(C(=O)c1ccccc1Cl)C(C)(C)C records Efficacy of 90% or higher.
[A] T

[Q] Test whether the compound CC(C)(C)N(NC(=O)c1cccc(Cl)c1)C(=O)c1ccccc1Cl records Efficacy of 90% or higher.
[A] T

[Q] Test whether the compound CCc1ccc(C(=O)NC(C(=O)c2cc(C)cc(C)c2)C(C)(C)C)cc1 (stereo not given) records Efficacy of 90% or higher.
[A] F

[Q] Test whether the compound CC1CC(Nc2ccc(F)cc2)c2cc(F)ccc2N1C(=O)c1ccc(Cl)cc1 (stereo not given) records Efficacy of 90% or higher.
[A] F

[Q] Test whether the compound Cc1cc(C)c(Cl)c(C(=O)N(NC(=O)c2ccc(Cl)cc2)C(C)(C)C)c1 records Efficacy of 90% or higher.
[A] T

[Q] Test whether the compound CCC(CC)(NC(=O)c1ccc2c(c1C)CCCO2)C(=O)c1cc(C)cc(C)c1 records Efficacy of 90% or higher.
[A] T

[Q] Test whether the compound COc1cccc(C(=O)NN(C(=O)c2cc(C)cc(C)c2)C(C)(C)C)c1C [METHOXYFENOZIDE] records Efficacy of 90% or higher.
[A] T

* * *

Molecular target: Ecdysone receptor (Spodoptera littoralis)
Sequence (E3UJZ5 whole entry): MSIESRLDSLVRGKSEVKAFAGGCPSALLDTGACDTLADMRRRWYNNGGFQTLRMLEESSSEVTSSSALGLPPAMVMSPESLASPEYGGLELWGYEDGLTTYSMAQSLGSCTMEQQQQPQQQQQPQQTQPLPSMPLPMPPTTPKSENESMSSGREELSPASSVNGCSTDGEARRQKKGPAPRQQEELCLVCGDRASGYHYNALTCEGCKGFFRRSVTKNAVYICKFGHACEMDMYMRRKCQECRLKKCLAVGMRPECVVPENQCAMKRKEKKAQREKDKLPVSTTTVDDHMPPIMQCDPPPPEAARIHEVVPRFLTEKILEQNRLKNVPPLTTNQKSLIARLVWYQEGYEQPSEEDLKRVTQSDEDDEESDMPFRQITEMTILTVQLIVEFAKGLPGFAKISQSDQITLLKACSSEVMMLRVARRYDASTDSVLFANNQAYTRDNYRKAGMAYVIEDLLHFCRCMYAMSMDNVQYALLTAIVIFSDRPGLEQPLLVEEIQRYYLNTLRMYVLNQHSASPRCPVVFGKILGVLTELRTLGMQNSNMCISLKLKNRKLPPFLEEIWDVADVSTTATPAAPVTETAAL
Assay: Agonist activity at ecdysone receptor in Spodoptera littoralis Sl2 cells after 24 hr by luciferase reporter gene assay
Type: cell-based
Details: read-out: pEC50 (converted)
// assign Met if EC50 falls strictly below 500 nM, else Not met (ties count as Not met)

[Q] Is EC50 strictly under 500 nM for the entry Cc1ccc(C(=O)NN(C(=O)c2cc(C)cc(C)c2Cl)C(C)(C)C)cc1 ?
[A] Not met
